The reported numbers originate from the supplement of paper PMC10567573.

Overview of recorded protein stability index for various variants
B1: ANKRD40 (parent)
chain: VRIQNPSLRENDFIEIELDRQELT

# Variants of: B1
# test.summary: protein stability index of a GFP-peptide fusion (GPS, HEK-293T) (PSI 1-6); higher = more stable;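 further: lentivirally expressed fusions sorted by FACS into six bins by GFP to DsRed ratio, PSI derived from sequencing read proportions per bin multiplied by bin number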
# details: c terminus: a fixed tail appended
Respond with the number and no other words.

response.value for I3G (field: protein stability index) = 4.05

Entry L8C ; protein stability index = 2.36
